System name: Sodium channel protein type 2 subunit alpha (Homo sapiens)
Sequence (Q99250 whole entry): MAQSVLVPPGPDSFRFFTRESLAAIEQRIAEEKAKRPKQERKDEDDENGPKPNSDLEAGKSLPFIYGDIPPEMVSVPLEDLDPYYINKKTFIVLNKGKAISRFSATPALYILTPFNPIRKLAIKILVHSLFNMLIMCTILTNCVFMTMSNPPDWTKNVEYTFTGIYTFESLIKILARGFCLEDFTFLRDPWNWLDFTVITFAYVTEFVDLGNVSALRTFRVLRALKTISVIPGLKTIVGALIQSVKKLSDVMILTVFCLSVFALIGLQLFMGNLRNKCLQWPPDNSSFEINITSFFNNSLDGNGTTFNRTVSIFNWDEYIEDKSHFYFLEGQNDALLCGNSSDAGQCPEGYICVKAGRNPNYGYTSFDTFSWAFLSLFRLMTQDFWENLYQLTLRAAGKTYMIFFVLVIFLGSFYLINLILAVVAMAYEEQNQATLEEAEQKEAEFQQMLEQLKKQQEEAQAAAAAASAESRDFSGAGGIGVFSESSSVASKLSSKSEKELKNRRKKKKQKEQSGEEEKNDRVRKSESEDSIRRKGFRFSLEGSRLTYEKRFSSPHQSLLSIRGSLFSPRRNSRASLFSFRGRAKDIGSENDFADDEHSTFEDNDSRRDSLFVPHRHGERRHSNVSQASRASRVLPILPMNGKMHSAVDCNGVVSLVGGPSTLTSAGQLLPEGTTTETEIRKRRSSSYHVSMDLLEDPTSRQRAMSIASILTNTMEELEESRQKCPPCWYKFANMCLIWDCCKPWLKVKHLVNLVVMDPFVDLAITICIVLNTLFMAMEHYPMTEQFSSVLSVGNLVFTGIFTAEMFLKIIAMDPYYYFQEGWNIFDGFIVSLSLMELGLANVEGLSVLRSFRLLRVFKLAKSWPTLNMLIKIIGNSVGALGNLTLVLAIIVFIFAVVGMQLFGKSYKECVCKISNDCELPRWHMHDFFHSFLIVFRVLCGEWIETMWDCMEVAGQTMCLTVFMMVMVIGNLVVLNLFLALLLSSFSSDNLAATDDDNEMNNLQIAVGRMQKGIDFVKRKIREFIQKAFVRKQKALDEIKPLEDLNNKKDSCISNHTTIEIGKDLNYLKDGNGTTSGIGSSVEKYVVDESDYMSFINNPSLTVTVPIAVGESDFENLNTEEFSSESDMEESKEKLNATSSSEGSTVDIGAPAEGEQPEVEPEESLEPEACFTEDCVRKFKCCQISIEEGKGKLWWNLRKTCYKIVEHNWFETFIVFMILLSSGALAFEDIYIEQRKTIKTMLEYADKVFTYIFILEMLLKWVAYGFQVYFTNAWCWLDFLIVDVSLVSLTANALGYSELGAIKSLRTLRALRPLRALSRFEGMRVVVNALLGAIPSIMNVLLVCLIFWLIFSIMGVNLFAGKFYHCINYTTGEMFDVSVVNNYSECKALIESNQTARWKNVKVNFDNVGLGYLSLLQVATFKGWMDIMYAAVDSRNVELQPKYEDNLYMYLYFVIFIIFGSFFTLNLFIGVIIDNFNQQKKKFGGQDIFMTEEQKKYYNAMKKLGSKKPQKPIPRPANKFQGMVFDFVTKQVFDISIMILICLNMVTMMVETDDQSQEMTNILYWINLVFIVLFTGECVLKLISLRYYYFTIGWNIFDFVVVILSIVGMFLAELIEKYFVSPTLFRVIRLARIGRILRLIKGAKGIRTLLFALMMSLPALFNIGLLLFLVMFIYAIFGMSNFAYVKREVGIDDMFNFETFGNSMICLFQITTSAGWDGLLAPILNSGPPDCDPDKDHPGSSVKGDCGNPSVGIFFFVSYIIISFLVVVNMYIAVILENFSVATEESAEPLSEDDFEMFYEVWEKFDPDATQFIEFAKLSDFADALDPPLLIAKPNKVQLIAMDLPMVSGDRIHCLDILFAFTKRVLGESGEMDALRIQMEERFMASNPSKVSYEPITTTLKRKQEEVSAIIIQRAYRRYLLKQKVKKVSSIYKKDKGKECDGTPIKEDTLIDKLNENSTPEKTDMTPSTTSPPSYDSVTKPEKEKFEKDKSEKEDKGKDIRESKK
Measurement description: Inhibition of human Nav1.2 alpha subunit expressed in HEK293 cells co-expressing beta1 subunit at -35 mV holding potential by PatchXpress automated voltage clamp electrophysiology technique

# Smiles record, IC50 [nM]
rows = [
    ("CC1(COc2cc(F)c(C(=O)NS(=O)(=O)C3CC3)cc2C2CC2)CCC2(CC1)CC2", 2),
    ("CC1(COc2cc(F)c(C(=O)NS(=O)(=O)C3CC3)cc2C2CC2)CCC(F)(F)CC1", 6),
]

###

The following compounds are listed with their measured AUC values.
Measurement description: AUC in Sprague-Dawley rat at 5 mg/kg, po
Assay type: ADME, organism-based
Design: dose 5 mg/kg, route po
Test conditions: in vivo
Observed property: AUC (µM·h)

# Smiles record, Observed property, Result
rows = [
    ("CC1(COc2cc(F)c(C(=O)NS(=O)(=O)C3CC3)cc2C2CC2)CCC2(CC1)CC2", "AUC", 78),
    ("CC1(COc2cc(F)c(C(=O)NS(=O)(=O)C3CC3)cc2C2CC2)CCC(F)(F)CC1", "AUC", 160),
]
